- Tgt: T1, EsCas13d, nuclease-dead (Eubacterium siraeum, UniProt B0MS50, R295A;H300A;R849A;H854A)
- T1 sequence: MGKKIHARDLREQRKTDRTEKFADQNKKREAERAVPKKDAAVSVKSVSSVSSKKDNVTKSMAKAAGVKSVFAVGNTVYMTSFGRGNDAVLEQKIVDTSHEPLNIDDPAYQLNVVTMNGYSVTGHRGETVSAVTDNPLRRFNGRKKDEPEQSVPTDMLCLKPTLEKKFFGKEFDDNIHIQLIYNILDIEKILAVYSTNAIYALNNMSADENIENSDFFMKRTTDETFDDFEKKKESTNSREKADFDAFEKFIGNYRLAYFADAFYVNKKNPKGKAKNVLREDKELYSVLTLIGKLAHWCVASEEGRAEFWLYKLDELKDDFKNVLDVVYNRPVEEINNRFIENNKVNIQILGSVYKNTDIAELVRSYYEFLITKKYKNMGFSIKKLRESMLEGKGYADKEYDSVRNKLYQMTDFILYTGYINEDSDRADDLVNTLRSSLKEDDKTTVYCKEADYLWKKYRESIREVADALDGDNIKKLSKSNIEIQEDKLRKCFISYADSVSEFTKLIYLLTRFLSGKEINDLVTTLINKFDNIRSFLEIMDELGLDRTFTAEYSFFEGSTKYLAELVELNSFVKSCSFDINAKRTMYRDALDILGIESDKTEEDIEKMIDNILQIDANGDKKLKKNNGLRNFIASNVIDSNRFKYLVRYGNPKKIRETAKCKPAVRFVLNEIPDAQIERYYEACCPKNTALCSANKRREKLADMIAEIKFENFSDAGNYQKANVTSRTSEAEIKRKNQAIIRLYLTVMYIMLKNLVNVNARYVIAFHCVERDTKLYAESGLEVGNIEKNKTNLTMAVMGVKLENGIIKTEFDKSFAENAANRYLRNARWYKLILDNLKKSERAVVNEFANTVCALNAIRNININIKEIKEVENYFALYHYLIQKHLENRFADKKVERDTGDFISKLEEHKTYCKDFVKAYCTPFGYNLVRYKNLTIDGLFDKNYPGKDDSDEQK
- Test summary: crRNA (strand 1, pre-loaded); Mg2+; 40 mM Tris-HCl pH 7.5, 150 mM NaCl, 6 mM MgCl2, 1 mM DTT, 0.1% Tween-20, 0.2 mg/ml BSA; 25 C; 10 min per concentration, then washed
- Condition description: tags: His6-TwinStrep-SUMO cleaved; N-terminal SNAP kept (SNAP-Surface 488); label: 3' end held by stalled T7 RNA polymerase
Consider the following binders and their measured pKd readings.
In textbook form, pKd equals minus log to base ten of the concentration in mol/L.

target 1 insA 3' of 22,insU 3' of 20 (mixed) RNA 1: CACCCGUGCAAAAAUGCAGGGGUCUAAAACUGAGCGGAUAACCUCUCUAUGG RNA 2: GGGAAUGGAUCCACAUCUACGAAUUCGUACACAUUAGAGAGGUUAUCCGCUCACCGAGAUCGGAAGAGCACACGU: 7.78

GET /values?readout=pKd&item= target 2 MT 5'PFS GCG 3'PFS CAU (mixed) RNA 1: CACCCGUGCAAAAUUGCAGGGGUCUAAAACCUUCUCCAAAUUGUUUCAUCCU RNA 2: GGGAAUGGAUCCACAUCUACGAAUUCGCGAGGAUGAAACAAUUUGGAGAAGCAUAGAUCGGAAGAGCACACGU
7.89
